Data provenance is patent US20220024981A1.

target: T1, Human PCSK9 Alexa Fluor 647 (human, UniProt Q8NBP7 31-692, limits assumed, Alexa Fluor 647 label (site not stated)); test: TR-FRET competition: PCSK9-Alexa Fluor 647 vs LDLR ECD-Eu kryptate
T1 construct: Labelled tracer of the TR-FRET assay, 16 nM stock; also called proprotein convertase subtilisin/kexin type 9
T1 sequence (Q8NBP7 31-692 limits assumed): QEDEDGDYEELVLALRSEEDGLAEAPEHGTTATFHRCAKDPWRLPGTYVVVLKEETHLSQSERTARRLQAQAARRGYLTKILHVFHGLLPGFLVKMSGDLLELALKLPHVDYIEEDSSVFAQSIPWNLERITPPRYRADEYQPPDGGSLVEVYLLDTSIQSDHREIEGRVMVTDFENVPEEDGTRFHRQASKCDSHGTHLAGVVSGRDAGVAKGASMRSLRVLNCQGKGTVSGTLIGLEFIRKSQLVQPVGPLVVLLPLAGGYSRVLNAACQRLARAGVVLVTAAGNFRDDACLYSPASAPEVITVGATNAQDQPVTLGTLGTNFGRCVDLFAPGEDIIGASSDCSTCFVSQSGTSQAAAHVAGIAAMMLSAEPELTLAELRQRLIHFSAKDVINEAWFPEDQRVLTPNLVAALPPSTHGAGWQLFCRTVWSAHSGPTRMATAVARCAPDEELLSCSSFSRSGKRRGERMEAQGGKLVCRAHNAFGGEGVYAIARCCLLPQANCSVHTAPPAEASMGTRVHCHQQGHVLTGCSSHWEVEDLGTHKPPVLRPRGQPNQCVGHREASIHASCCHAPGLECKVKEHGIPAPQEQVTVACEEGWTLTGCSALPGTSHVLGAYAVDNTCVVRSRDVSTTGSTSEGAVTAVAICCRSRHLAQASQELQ
Bridge positions count the residues as written; N and C are the ends. Square brackets hold non-standard residues; d marks the D form. Bip = N[C@@H](Cc1ccc(-c2ccccc2)cc1)C(=O)O; NMeA = CN[C@@H](C)C(=O)O
VALUE TYPE: Maximum % inhibition
Reply with the number, then its unit.

Req: Would you mind telling me what Maximum % inhibition value was observed for {CH2CO}-FENTTF[NMeA][Bip][NMeA]ASPCG-NH2 (thioether N-13; SMILES C[C@@H]1NC(=O)[C@H](C)N(C)C(=O)[C@H](Cc2ccc(-c3ccccc3)cc2)NC(=O)[C@H](C)N(C)C(=O)[C@H](Cc2ccccc2)NC(=O)[C@H]([C@@H](C)O)NC(=O)[C@H]([C@@H](C)O)NC(=O)[C@H](CC(N)=O)NC(=O)[C@H](CCC(=O)O)NC(=O)[C@H](Cc2ccccc2)NC(=O)CSC[C@@H](C(=O)NCC(N)=O)NC(=O)[C@@H]2CCCN2C(=O)[C@H](CO)NC1=O, also called 1-27; Ex. No. 1-27) [Ac*-F-E-N-T-T-F-(N-Me)A-B-(N-Me)A-A-S-P-C*-G-NH2] ?
Resp: 55%
